- Study System: Peroxisome proliferator-activated receptor alpha (Homo sapiens)
- Sequence (Q07869 whole entry): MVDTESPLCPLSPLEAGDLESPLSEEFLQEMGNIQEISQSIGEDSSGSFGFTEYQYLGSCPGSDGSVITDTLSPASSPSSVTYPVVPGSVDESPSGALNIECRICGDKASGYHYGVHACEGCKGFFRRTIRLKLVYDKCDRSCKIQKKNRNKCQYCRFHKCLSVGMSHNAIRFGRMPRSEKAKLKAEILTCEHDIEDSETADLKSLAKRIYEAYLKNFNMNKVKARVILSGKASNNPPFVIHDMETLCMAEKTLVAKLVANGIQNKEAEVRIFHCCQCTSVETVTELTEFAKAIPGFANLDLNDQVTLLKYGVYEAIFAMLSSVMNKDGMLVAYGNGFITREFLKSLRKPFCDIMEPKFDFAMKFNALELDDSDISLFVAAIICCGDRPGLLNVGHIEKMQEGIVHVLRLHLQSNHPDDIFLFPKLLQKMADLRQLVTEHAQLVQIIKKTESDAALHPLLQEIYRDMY
- Method Notes: Agonist activity at human PPARalpha receptor expressed in HEK293 cells by GAL4 transactivation assay
Recorded Endpoint: pEC50
Note: pEC50 values are expressed as the negative base-10 logarithm of concentration in M.

Q: Param item = O=C(O)CCc1ccc(OCCN(Cc2ccc(C(F)(F)F)cc2)c2nc3ccccc3s2)cc1 ; retrieve measured pEC50.
Ans: 5.35
